Assay: Cytotoxicity against human HeLa cells after 72 hrs
Type: cell-based
Consider the following compounds and their measured CC50 at 72 h readings.

>  <compound>
C[C@H]1CC=C2[C@H](CC[C@H](O)C2(C)C)[C@@]1(C)COc1ccc2ccc(=O)oc2c1 [MICROLOBIDENE]

>  <CC50 at 72 h, µg/mL>
10

$$$$
>  <compound>
C=C1CC[C@@H](O)C(C)(C)C1CC/C(C)=C/COc1ccc2ccc(=O)oc2c1 (stereo not given in full) [FARNESIFEROL B]

>  <CC50 at 72 h, µg/mL>
8.2

$$$$
>  <compound>
C/C(=C\COc1ccc2ccc(=O)oc2c1)CCC1C(C)(C)[C@H]2CC[C@]1(C)O2 (stereo not given in full) [FARNESIFEROL]

>  <CC50 at 72 h, µg/mL>
7.7

$$$$
>  <compound>
Cc1cc(CCCOc2c(C)cc(-c3noc(C(F)(F)F)n3)cc2C)on1 [PLECONARIL]

>  <CC50 at 72 h, µg/mL>
12.6

$$$$
>  <compound>
CC(=O)O[C@H]1CC[C@]2(C)[C@H](CC[C@@](C)(O)[C@@H]2COc2ccc3ccc(=O)oc3c2)C1(C)C [KELLARIN]

>  <CC50 at 72 h, µg/mL>
15.5

$$$$

---

Test: Selectivity index, ratio of CC50 for HeLa cells to IC50 for HRV2 in HeLa cells
Format: functional, Homo sapiens
measure-name: Ratio CC50/IC50

>  <compound>
C=C1CC[C@@H](O)C(C)(C)C1CC/C(C)=C/COc1ccc2ccc(=O)oc2c1 (stereo not given in full)

>  <value-relation-sign>
=

>  <value-measured>
8.2

$$$$
>  <compound>
Cc1cc(CCCOc2c(C)cc(-c3noc(C(F)(F)F)n3)cc2C)on1

>  <value-relation-sign>
=

>  <value-measured>
1260

$$$$
>  <compound>
C[C@H]1CC=C2[C@H](CC[C@H](O)C2(C)C)[C@@]1(C)COc1ccc2ccc(=O)oc2c1

>  <value-relation-sign>
<

>  <value-measured>
1

$$$$
>  <compound>
C/C(=C\COc1ccc2ccc(=O)oc2c1)CCC1C(C)(C)[C@H]2CC[C@]1(C)O2 (stereo not given in full)

>  <value-relation-sign>
=

>  <value-measured>
8.02

$$$$
>  <compound>
CC(=O)O[C@H]1CC[C@]2(C)[C@H](CC[C@@](C)(O)[C@@H]2COc2ccc3ccc(=O)oc3c2)C1(C)C

>  <value-relation-sign>
<

>  <value-measured>
1

$$$$

This collection of values is drawn from ChEMBL document CHEMBL1142266.
